Test system: Bacillus subtilis ATCC 23857
Assay: Antibacterial screen at 200 μg/mL (cell density vs control)
Assay type: cell-based
Settings: peptide 200 μg/mL, CAMHB, 5 × 10^5 CFU/mL, 37°C, 12 h, OD600; control (no AMP) = 1; three biological replicates
Item-by-item account of cell density relative to control, B. subtilis ATCC 23857
# output: bare number, no unit

Guide cases for cell density relative to control, B. subtilis ATCC 23857, answers given:
MGPHWRGPRWGRVGCWNL [Cand-154, chemically synthesized candidate AMP predicted from marine biofilm bacteria] ... 0
MRRFCCCRCSCCCWPS [Cand-25, chemically synthesized candidate AMP predicted from marine biofilm bacteria] ... 1

Now look at this one.
Please indicate cell density relative to control, B. subtilis ATCC 23857 recorded for MFSKLVKVLLKALCHVFMKCTFW [Cand-61, chemically synthesized candidate AMP predicted from marine biofilm bacteria] 0

----------
Item-by-item account of cell density relative to control, E. coli ATCC 11775
Test system: Escherichia coli ATCC 11775
Experiment: Antibacterial screen at 200 μg/mL (cell density vs control)
Assay type: cell-based
Conditions: peptide 200 μg/mL, CAMHB, 5 × 10^5 CFU/mL, 37°C, 12 h, OD600; control (no AMP) = 1; three biological replicates
# output: bare number, no unit

MRPCMCRIGGRL [Cand-19, chemically synthesized candidate AMP predicted from marine biofilm bacteria] ... 1
MKALRRFLSCKVCSHALN [Cand-160, chemically synthesized candidate AMP predicted from marine biofilm bacteria] ... 0.406
MRPSMCRIGGRL [Cand-38, chemically synthesized candidate AMP predicted from marine biofilm bacteria] ... 0.861
MKRLKKCVLSSLSI [Cand-126, chemically synthesized candidate AMP predicted from marine biofilm bacteria] ... 0.448
MRHNMCRIGGRL [Cand-203, chemically synthesized candidate AMP predicted from marine biofilm bacteria] ... 1

Now look at this one.
Please indicate cell density relative to control, E. coli ATCC 11775 recorded for MIYICTRITKCKLHGGCSSVG [Cand-155, chemically synthesized candidate AMP predicted from marine biofilm bacteria] 1

----------
System: sheep red blood cells
Conditions: red cells of sheep, 1 h, 64
Where no end group is shown, it is not given here.
Parameter threshold = 3%. Response is True when Hemolysis ratio (%) at 64μg/mL meets or exceeds it, else False.

MWIRLTKRLRKSRSNR [Cand-214] ... True
MLTWLKKLQPYLISMMR [Cand-44] ... True
MSRSLRNLLKYVWVKVKGE [Cand-217] ... True

Given MKKCRRKVLFGLWRRN [Cand-77] , state whether its Hemolysis ratio (%) at 64μg/mL is at least 3%. True

Given MRPKKWLKKPKPRPKKWPTK [Cand-210] , state whether its Hemolysis ratio (%) at 64μg/mL is at least 3%. False

Given MSPCLKGVIRSAVKSLHR [Cand-53] , state whether its Hemolysis ratio (%) at 64μg/mL is at least 3%. True

Given MWPLSKLWPSCFRKTT [Cand-5] , state whether its Hemolysis ratio (%) at 64μg/mL is at least 3%. True

Given MVAVMKKLLLKYALK [Cand-82] , state whether its Hemolysis ratio (%) at 64μg/mL is at least 3%. False

Given MSPIRAWRRLRSC [Cand-144] , state whether its Hemolysis ratio (%) at 64μg/mL is at least 3%. True
